- study-target: mfPRLR.mmh (monomeric macaca fascicularis PRLR)
- Sequence (as listed by the source): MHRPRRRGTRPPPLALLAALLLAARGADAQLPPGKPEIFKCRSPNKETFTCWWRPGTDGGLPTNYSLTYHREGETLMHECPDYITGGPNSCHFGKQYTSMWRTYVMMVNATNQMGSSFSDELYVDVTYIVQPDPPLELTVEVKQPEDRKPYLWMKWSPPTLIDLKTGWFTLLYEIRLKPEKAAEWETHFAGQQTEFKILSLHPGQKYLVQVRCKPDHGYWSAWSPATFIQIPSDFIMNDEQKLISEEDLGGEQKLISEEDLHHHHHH
- test-summary: Surface plasmon resonance (Biacore T200), mAb-capture format
- Assay type: binding
- run-parameters: 25° C., antibody-capture format, analyte mfPRLR.mmh
measure: pKd
Worth noting: pKd values are minus log10 of concentrations stated in mol/L.

H1H6959N2: human IgG1 Fc form of H2M6959N2; anti-PRLR; HCVR/LCVR SEQ ID NOs 306/314 (antibody, V domains shown, human IgG1 Fc) VH: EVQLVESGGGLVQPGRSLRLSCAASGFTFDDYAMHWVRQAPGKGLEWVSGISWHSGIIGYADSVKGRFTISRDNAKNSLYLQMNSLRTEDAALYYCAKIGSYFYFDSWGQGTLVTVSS VL: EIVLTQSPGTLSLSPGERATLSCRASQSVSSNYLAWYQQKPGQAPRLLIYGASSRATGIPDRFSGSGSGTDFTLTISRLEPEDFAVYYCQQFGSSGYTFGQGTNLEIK    6.89
H1H6960N: human IgG1 Fc form of H2M6960N; anti-PRLR; HCVR/LCVR SEQ ID NOs 322/330 (antibody, V domains shown, human IgG1 Fc) VH: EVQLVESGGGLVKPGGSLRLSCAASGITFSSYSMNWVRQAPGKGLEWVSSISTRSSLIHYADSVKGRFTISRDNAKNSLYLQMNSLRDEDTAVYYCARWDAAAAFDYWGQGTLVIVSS VL: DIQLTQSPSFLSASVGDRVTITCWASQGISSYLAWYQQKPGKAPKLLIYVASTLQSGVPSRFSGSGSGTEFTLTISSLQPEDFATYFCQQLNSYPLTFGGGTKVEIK    8.21

# input for lookup
Reported pKd of H1H6953N: human IgG1 Fc form of H1M6953N; anti-PRLR; HCVR/LCVR SEQ ID NOs 274/282 (antibody, V domains shown, human IgG1 Fc) VH: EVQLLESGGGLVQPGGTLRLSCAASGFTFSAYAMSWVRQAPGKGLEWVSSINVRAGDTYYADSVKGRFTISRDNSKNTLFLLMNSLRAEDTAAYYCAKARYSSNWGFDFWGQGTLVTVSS VL: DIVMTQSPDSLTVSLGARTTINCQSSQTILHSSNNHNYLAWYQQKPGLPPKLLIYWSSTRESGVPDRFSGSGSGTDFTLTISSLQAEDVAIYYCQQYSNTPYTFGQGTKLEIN : 9.36

The measured values listed here are drawn from patent US9688764B2.
